Target: muIDO2 (Mus musculus)
Sequence (Q8R0V5 1-405): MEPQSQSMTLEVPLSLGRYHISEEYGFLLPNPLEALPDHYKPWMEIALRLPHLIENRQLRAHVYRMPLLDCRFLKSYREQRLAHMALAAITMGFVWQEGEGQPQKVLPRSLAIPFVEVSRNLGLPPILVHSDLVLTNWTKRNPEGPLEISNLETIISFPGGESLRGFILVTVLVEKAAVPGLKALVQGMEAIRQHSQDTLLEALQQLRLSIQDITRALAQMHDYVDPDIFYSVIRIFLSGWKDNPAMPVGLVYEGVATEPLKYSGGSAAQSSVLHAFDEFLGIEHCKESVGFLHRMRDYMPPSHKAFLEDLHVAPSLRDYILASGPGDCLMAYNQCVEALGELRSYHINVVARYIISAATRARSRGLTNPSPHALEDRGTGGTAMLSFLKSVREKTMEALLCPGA
Assay: kynurenine assay in 293-T-REx cells expressing muIDO2
endpoint: IC50 (µM)
Output spec: scalar in µM, unitless text.

Prompt: Find the recorded IC50 belonging to C=CC1=C(C)C2=Cc3c(C=C)c(C)c4[n]3[Zn][n]3c(c(C)c(CCC(=O)O)c3=CC3=NC(=C4)C(C)=C3CCC(=O)O)=CC1=N2 [ZnPP] and report it.
Completion: 7.1

Data origin, for the record: paper PMC2885048
